Just for reference, patent US20110135573A1 is where these values come from.

Target: T1, human MMP-2 (Biomol #SE-237) (human, UniProt P08253 110-452, limits assumed)
T1 construct: also called hMMP-2
T1 sequence (P08253 110-452 limits assumed): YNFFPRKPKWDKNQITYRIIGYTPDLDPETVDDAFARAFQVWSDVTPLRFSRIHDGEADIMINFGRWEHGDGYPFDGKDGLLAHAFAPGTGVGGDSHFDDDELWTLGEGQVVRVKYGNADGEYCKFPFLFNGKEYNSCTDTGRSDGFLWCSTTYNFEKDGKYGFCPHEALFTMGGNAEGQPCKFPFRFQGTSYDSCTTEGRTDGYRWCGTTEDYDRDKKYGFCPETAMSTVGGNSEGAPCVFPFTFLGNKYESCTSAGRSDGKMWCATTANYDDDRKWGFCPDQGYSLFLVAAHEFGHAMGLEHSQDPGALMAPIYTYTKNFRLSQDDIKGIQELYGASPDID
Test: Ki,app, enzyme inhibition assay (fluorogenic peptide substrate), small-scale sFab
outcome measure: Ki (nM)

>>> value_reported("M0307-F04 (Fab, V domains shown, sFab; variable domains only; also called M307-F04) VH: EVQLLESGGGLVQPGGSLRLSCAASGFTFSLYDMWWVRQAPGKGLEWVSVIYSSGGYTGYADSVKGRFTISRDNSKNTLYLQMNSLRAEDTAVYYCAKDRAYGDYVGWNGFDYWGQGTLVTVSS VL: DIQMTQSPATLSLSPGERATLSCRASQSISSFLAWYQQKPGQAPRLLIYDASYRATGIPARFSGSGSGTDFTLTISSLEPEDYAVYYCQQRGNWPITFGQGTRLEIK")
0.1
>>> value_reported("M0275-D03 (Fab, V domains shown, sFab; variable domains only; also called M275-D03) VH: EVQLLESGGGLVQPGGSLRLSCAASGFTFSQYDMWWVRQAPGKGLEWVSVIYPSGTTFYADSVKGRFTISRDNSKNTLYLQMNSLRAEDTAVYYCAKDRAYGDYVGWNGFDYWGQGTLVTVSS VL: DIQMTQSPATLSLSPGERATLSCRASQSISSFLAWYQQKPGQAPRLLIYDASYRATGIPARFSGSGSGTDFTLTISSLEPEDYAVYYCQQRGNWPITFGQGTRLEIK")
0.7
>>> value_reported("M0306-D04 (Fab, V domains shown, sFab; variable domains only; also called M306-D04) VH: EVQLLESGGGLVQPGGSLRLSCAASGFTFSLYPMWWVRQAPGKGLEWVSSIYPSGGATFYADSVKGRFTISRDNSKNTLYLQMNSLRAEDTAVYYCAKDRAYGDYVGWNGFDYWGQGTLVTVSS VL: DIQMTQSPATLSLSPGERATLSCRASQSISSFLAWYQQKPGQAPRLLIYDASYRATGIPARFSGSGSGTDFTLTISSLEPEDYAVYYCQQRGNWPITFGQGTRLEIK")
1
